# MEASUREMENT PROTOCOL: Selectivity index, ratio of MLD50 for african green monkey BGM cells to IC50 for chloroquine-resistant Plasmodium falciparum W2 infected in human A+ erythrocytes by HRP2 ELISA assay
# Format: toxicity, cell-based
# SETTINGS: read-out: Selectivity Index
Decide using selectivity ratio: a value greater than or equal to 4 is label 1, a smaller one is label 0.

[in] Entry Cc1cc(Nc2ccc(Cl)cc2)n2nc(C)cc2n1 : is its selectivity ratio no less than 4?
[out] label 1

[in] Entry Cc1cc(Nc2ccc(C(F)(F)F)cc2)n2nc(C(F)(F)F)cc2n1 : is its selectivity ratio no less than 4?
[out] label 0

[in] Entry Cc1cc(Nc2ccc(C(F)(F)F)cc2)n2nc(C)cc2n1 : is its selectivity ratio no less than 4?
[out] label 1

[in] Entry Cc1cc(Nc2ccc(Cl)cc2)n2nc(C(F)(F)F)cc2n1 : is its selectivity ratio no less than 4?
[out] label 0

[in] Entry Cc1cc(Nc2ccccc2C(F)(F)F)n2nc(C(F)(F)F)cc2n1 : is its selectivity ratio no less than 4?
[out] label 1

[in] Entry COc1cc(Nc2cc(C)nc3cc(C)nn23)cc(OC)c1 : is its selectivity ratio no less than 4?
[out] label 1

[in] Entry Cc1cc(Nc2ccccc2C(F)(F)F)n2nc(C)cc2n1 : is its selectivity ratio no less than 4?
[out] label 0

[in] Entry Cc1cc(Nc2ccccc2)n2nc(C)cc2n1 : is its selectivity ratio no less than 4?
[out] label 0

[in] Entry Cc1cc(Nc2ccc3ccccc3c2)n2nc(C(F)(F)F)nc2n1 : is its selectivity ratio no less than 4?
[out] label 1

* * *

# TESTED TARGET: Dihydroorotate dehydrogenase (quinone), mitochondrial (Homo sapiens) (UniProt Q02127)
# Sequence (Q02127 whole entry): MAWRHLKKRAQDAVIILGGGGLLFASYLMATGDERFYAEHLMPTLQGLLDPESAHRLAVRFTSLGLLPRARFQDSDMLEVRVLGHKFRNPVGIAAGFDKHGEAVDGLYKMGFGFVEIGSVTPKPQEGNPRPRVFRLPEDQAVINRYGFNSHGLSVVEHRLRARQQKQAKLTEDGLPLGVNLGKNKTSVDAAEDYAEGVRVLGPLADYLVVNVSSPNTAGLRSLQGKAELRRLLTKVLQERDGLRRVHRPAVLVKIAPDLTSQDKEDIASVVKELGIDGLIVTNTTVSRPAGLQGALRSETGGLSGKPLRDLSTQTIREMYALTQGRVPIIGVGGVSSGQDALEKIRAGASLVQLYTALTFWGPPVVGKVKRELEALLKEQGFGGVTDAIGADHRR
# MEASUREMENT PROTOCOL: Inhibition of recombinant human DHODH assessed as residual activity at 50 uM using L-dihydroorotate as substrate by DCIP-based colorimetric assay relative to control
Please provide measured Activity for the entries that follow.
Reply with the number, then its unit.

[in] Would you mind telling me what Activity value was observed for COc1cc(Nc2cc(C)nc3cc(C)nn23)cc(OC)c1 ?
[out] 80%

[in] Would you mind telling me what Activity value was observed for Cc1cc(Nc2ccc(Cl)cc2)n2nc(C(F)(F)F)cc2n1 ?
[out] 121%

[in] Would you mind telling me what Activity value was observed for Cc1cc(Nc2ccccc2C(F)(F)F)n2nc(C(F)(F)F)cc2n1 ?
[out] 93%

[in] Would you mind telling me what Activity value was observed for Cc1cc2nc(C(F)(F)F)cc(Nc3ccccc3)n2n1 ?
[out] 122%

[in] Would you mind telling me what Activity value was observed for COc1cc(Nc2cc(C(F)(F)F)nc3cc(C)nn23)cc(OC)c1 ?
[out] 104%

[in] Would you mind telling me what Activity value was observed for Cc1cc(Nc2ccccc2)n2nc(C(F)(F)F)cc2n1 ?
[out] 113%

[in] Would you mind telling me what Activity value was observed for Cc1cc(Nc2ccc3ccccc3c2)n2nc(C)cc2n1 ?
[out] 71.9%

[in] Would you mind telling me what Activity value was observed for Cc1cc(Nc2ccc(C(F)(F)F)cc2)n2nc(C(F)(F)F)cc2n1 ?
[out] 95%

[in] Would you mind telling me what Activity value was observed for Cc1cc(Nc2ccc(Cl)cc2)n2nc(C)cc2n1 ?
[out] 95%

[in] Would you mind telling me what Activity value was observed for Cc1cc2nc(C(F)(F)F)cc(Nc3ccc4ccccc4c3)n2n1 ?
[out] 101%

[in] Would you mind telling me what Activity value was observed for Cc1cc(Nc2ccc3ccccc3c2)n2nc(C(F)(F)F)cc2n1 ?
[out] 56.8%

[in] Would you mind telling me what Activity value was observed for Cc1cc(Nc2ccc(C(F)(F)F)cc2)n2nc(C)cc2n1 ?
[out] 88%

[in] Would you mind telling me what Activity value was observed for Cc1cc(Nc2ccccc2C(F)(F)F)n2nc(C)cc2n1 ?
[out] 96%

[in] Would you mind telling me what Activity value was observed for COc1cc(Nc2cc(C)nc3cc(C(F)(F)F)nn23)cc(OC)c1 ?
[out] 95%

[in] Would you mind telling me what Activity value was observed for Cc1cc(Nc2ccccc2)n2nc(C)cc2n1 ?
[out] 104%
